Measured values drawn from patent EP0233105A1 for this set.

Measured EC99 values are reported for all entries that follow.
# Test system: virus (Polio type I)
# measurement.notes: microbe, parasite or virus in culture
# Assay type: cell-based
# test.conditions: Vero, read-out: DE 99

Worked set:
molecule: COc1ccc(-c2oc3c(OC)c(OC)c(OC)c(O)c3c(=O)c2OC)cc1OC
measured.quantity: EC99
test.result: 25 µg/mL
--
molecule: COc1ccc2oc(-c3ccc(O)cc3)c(OC)c(=O)c2c1 [3,6-diméthoxy-4'-hydroxyflavone]
measured.quantity: EC99
test.result: 25 µg/mL
--
molecule: COc1c(-c2ccc(O)cc2)oc2cc(F)ccc2c1=O [3-méthoxy-4'-hydroxy-7-fluoroflavone]
measured.quantity: EC99
test.result: 6 µg/mL

# input for lookup
Query block: What value of EC99 on virus (Polio type I) does COc1cc2oc(-c3ccc(O)cc3)c(OC)c(=O)c2c(O)c1OC [3,6,7-triméthoxy-4',5-dihydroxyflavone] have?
Result block: 5 µg/mL

###

# Test system: virus (Polio type I)
# measurement.notes: microbe, parasite or virus in culture
# Format: cell-based
# test.conditions: Vero, read-out: DE 99
EC99 values by entry
Remember to put the unit after the number in your answer.

// below: answered compounds
compound: COc1c(-c2ccc(Cl)cc2)oc2cc(C)ccc2c1=O
test.result: 20 µg/mL

compound: COc1c(-c2ccc(O)cc2)oc2c(OC)cccc2c1=O [3,8-diméthoxy-4'-hydroxyflavone]
test.result: 20 µg/mL

compound: COc1c(-c2ccc(O)cc2)oc2ccccc2c1=O [3-méthoxy-4'-hydroxyflavone]
test.result: 6 µg/mL

compound: COc1ccc(-c2oc3ccc(OC)cc3c(=O)c2OC)cc1
test.result: 50 µg/mL

compound: COc1ccc(-c2oc3ccc(O)cc3c(=O)c2OC)cc1 [3,4'-diméthoxy-6-hydroxyflavone]
test.result: 200 µg/mL

Query block: Need EC99 of COc1c(-c2ccc(O)cc2)oc2cccc(OC)c2c1=O [3,5-diméthoxy-4'-hydroxyflavone] , thanks.
Result block: 10 µg/mL

Query block: Also check COc1ccc(-c2oc3cc(OC)c(OC)c(OC)c3c(=O)c2OC)cc1OC
Result block: 200 µg/mL

Query block: Proceed to COc1c(-c2ccc(OCc3ccccc3)cc2)oc2ccccc2c1=O
Result block: 100 µg/mL

###

# measurement.notes: Lethal dose 50% (inhibition of growth of normal cells)
# Assay type: cell-based
# test.conditions: monkey; concentration inhibiting 50% of growth of normal VERO cells; no unit in table, test concentrations given in microgrammes/ml; read-out: DL50 (the source's name)
Reported CC50 values follow for various compounds
Field: numeric (µg/mL). Do not append units.

compound: COc1c(-c2ccc(O)cc2)oc2cc(F)ccc2c1=O [3-méthoxy-4'-hydroxy-7-fluoroflavone]
CC50 [µg/mL]: 20

Query block: Given COc1c(-c2ccc(O)cc2)oc2cccc(OC)c2c1=O [3,5-diméthoxy-4'-hydroxyflavone] , state its recorded CC50.
Result block: 150

Query block: Then this compound: COc1ccc2oc(-c3ccc(O)cc3)c(OC)c(=O)c2c1 [3,6-diméthoxy-4'-hydroxyflavone]
Result block: 200

Query block: Would you kindly repeat that for COc1ccc(-c2oc3cc(O)c(OC)c(O)c3c(=O)c2OC)cc1 [3,4',6-triméthoxy-5,7-dihydroxyflavone] ?
Result block: 50

Query block: Proceed to COc1c(-c2ccc(O)cc2)oc2c(OC)cccc2c1=O [3,8-diméthoxy-4'-hydroxyflavone]
Result block: 25

###

# measurement.notes: Lethal dose 50% (inhibition of growth of normal cells)
# Assay type: cell-based
# test.conditions: monkey; concentration inhibiting 50% of growth of normal VERO cells; no unit in table, test concentrations given in microgrammes/ml; read-out: DL50 (the source's name)
Quick reference for CC50 among some compounds
Numeric only. Scale: µg/mL

Some solved entries appear below for comparison.
compound: COc1c(-c2ccc(O)cc2)oc2ccccc2c1=O [3-méthoxy-4'-hydroxyflavone]
CC50, µg/mL: 10
--
compound: COc1c(-c2ccc(O)cc2)oc2ccc(Cl)cc2c1=O [3-méthoxy-4'-hydroxy-6-chloroflavone]
CC50, µg/mL: 100

Query block: Which CC50 reading was recorded for the compound COc1ccc2c(=O)c(OC)c(-c3ccc(O)cc3)oc2c1 [3,7-diméthoxy-4'-hydroxyflavone] ?
Result block: 25

Query block: Further, for COc1ccc(-c2oc3ccc(OC)cc3c(=O)c2OC)cc1 ?
Result block: 100

Query block: How about COc1c(-c2ccc(O)cc2)oc2ccc(C)cc2c1=O [3-méthoxy-4'-hydroxy-6-methylflavone] ?
Result block: 75

###

# System: virus (Polio type I)
# measurement.notes: microbe, parasite or virus in culture
# Type: cell-based
# test.conditions: Vero, read-out: DE 99
Items are presented alongside their recorded EC99.
Write down the numeric answer in µg/mL and omit the unit.

compound: COc1c(-c2ccc(O)cc2)oc2cc(C)ccc2c1=O [3-méthoxy-4'-hydroxy-7-méthylflavone]
measured.quantity: EC99
test.result: 2
--
compound: COc1c(-c2ccc(O)cc2)oc2ccc(O)cc2c1=O [3-méthoxy-4',6-dihydroxyflavone]
measured.quantity: EC99
test.result: 2
--
compound: COc1ccc(-c2oc3cc(O)c(OC)c(O)c3c(=O)c2OC)cc1 [3,4',6-triméthoxy-5,7-dihydroxyflavone]
measured.quantity: EC99
test.result: 10

Now consider a different compound.
Query block: Quick one: EC99 of COc1c(O)cc2oc(-c3ccc(O)cc3)c(OC)c(=O)c2c1O [3,6-diméthoxy-4',5,7-trihydroxyflavone] ?
Result block: 1

###

# System: virus (Polio type I)
# measurement.notes: microbe, parasite or virus in culture
# Assay type: cell-based
# test.conditions: Vero, read-out: DE 99
measured.quantity: EC99
Express the reported value numerically, then name its unit.

Solved entries:
compound: COc1c(-c2ccc(O)cc2)oc2ccc(Cl)cc2c1=O [3-méthoxy-4'-hydroxy-6-chloroflavone]
assay.target: virus (Polio type I)
test.result: 6 µg/mL
//
compound: COc1ccc2c(=O)c(OC)c(-c3ccc(O)cc3)oc2c1 [3,7-diméthoxy-4'-hydroxyflavone]
assay.target: virus (Polio type I)
test.result: 5 µg/mL
//
compound: COc1ccc(-c2oc3c(OC)c(OC)c(OC)c(OC)c3c(=O)c2OC)cc1OC
assay.target: virus (Polio type I)
test.result: 25 µg/mL

Query block: EC99 for COc1c(-c2ccc(O)cc2)oc2ccc(C)cc2c1=O [3-méthoxy-4'-hydroxy-6-methylflavone] ?
Result block: 5 µg/mL

Query block: Also need COc1c(-c2ccc(O)cc2)oc2cc(Cl)ccc2c1=O [3-méthoxy-4'-hydroxy-7-chloroflavone] , thanks.
Result block: 7 µg/mL

###

Reported CC50 is given for each of the following molecules.
# measurement.notes: Lethal dose 50% (inhibition of growth of normal cells)
# Format: cell-based
# test.conditions: monkey; concentration inhibiting 50% of growth of normal VERO cells; no unit in table, test concentrations given in microgrammes/ml; read-out: DL50 (the source's name)
# output: bare number, implied unit mg/L

molecule: COc1cc2oc(-c3ccc(O)cc3)c(OC)c(=O)c2c(O)c1OC [3,6,7-triméthoxy-4',5-dihydroxyflavone]
CC50 (mg/L): 100
--
molecule: COc1c(-c2ccc(O)cc2)oc2ccc(O)cc2c1=O [3-méthoxy-4',6-dihydroxyflavone]
CC50 (mg/L): 3
--
molecule: COc1ccc(-c2oc3cc(OC)c(OC)c(OC)c3c(=O)c2OC)cc1OC [3,3',4',5,6,7-hexaméthoxyflavone]
CC50 (mg/L): 200
--
molecule: COc1ccc(-c2oc3c(OC)c(OC)c(OC)c(O)c3c(=O)c2OC)cc1OC
CC50 (mg/L): 200
--
molecule: COc1c(-c2ccc(Cl)cc2)oc2cc(C)ccc2c1=O [3-méthoxy-4'-chloro-7-méthylflavone]
CC50 (mg/L): 10

Query block: Form field: reported CC50 of COc1c(-c2ccc(OCc3ccccc3)cc2)oc2ccccc2c1=O [3-méthoxy-4'-benzyloxyflavone]
Result block: 100

Query block: Same lookup for COc1ccc(-c2oc3c(OC)c(OC)c(OC)c(OC)c3c(=O)c2OC)cc1OC [3,3',4',5,6,7,8-heptaméthoxyflavone] , please.
Result block: 200

Query block: Continue with COc1c(-c2ccc(O)cc2)oc2cc(Cl)ccc2c1=O [3-méthoxy-4'-hydroxy-7-chloroflavone]
Result block: 100

###

# measurement.notes: Lethal dose 50% (inhibition of growth of normal cells)
# Type: cell-based
# test.conditions: monkey; concentration inhibiting 50% of growth of normal VERO cells; no unit in table, test concentrations given in microgrammes/ml; read-out: DL50 (the source's name)
measured.quantity: CC50 (µg/mL)
Give your result in µg/mL as a bare value.

# count of solved cases: 2
compound: COc1c(O)cc2oc(-c3ccc(O)cc3)c(OC)c(=O)c2c1O [3,6-diméthoxy-4',5,7-trihydroxyflavone]
readout.unit: µg/mL
CC50: 20
//
compound: COc1ccc(-c2oc3ccc(O)cc3c(=O)c2OC)cc1 [3,4'-diméthoxy-6-hydroxyflavone]
readout.unit: µg/mL
CC50: 200

API: the following record is the query input.
Query block: Which CC50 value is on record for COc1c(-c2ccc(O)cc2)oc2cc(C)ccc2c1=O [3-méthoxy-4'-hydroxy-7-méthylflavone] ?
Result block: 25
